Test system: SN12C
TEST PROTOCOL: NCI tumour cell line growth inhibition, 48 h
Active and inactive are the calls of the source. Rule as the data show it: active = GI50 up to about 1.1 µM and inactive = higher.
Classes used: 1 (active), -1 (inactive)

COMPOUND	LABEL VALUE
CN(C)CCNCc1c2ccccc2c(CNCCN(C)C)c2ccccc12	-1
CCOC(=O)N[C@H]1CCc2cc(O)c(OC)c(OC)c2-c2ccc(SC)c(=O)cc21	1
CCOC(=O)/C(=C\c1c(C)[nH]c2ccccc12)P(=O)(OCC)OCC	-1
O=[N+]([O-])c1cccc(CSc2nc(O)c3nc[nH]c3n2)c1	-1
CC1(C)C2CC(O)C1(C)CC2=O (centres undefined)	-1
C=CCC1OC(C)(C)Oc2ccc(OCOCCOC)cc21 (centres undefined)	-1
Nc1nc(=O)n(C2OC(CO)C(O)C2O)cc1F (centres undefined)	-1
COc1cc(C2SCC(=O)N2c2ccc(-n3c(-c4ccccc4)nc4ccccc4c3=O)cc2)cc(OC)c1OC (centres undefined)	-1
NC1=NN(c2ccccc2)C(=O)C1C(=O)C(=O)Nc1ccccc1 (centres undefined)	-1
COc1ccc2[nH]c(=O)cc(C)c2c1[N+](=O)[O-]	-1
O=C1Oc2ccccc2C(=O)/C1=C/N1C(=O)/C(=C/c2ccc([N+](=O)[O-])cc2)SC1=S	-1
S=c1c2cn[nH]c2nc2scc(-c3ccc(Cl)cc3)n12	-1
O=C1c2c(F)c(F)c(F)c(F)c2SC2=Nc3cccc4cccc(c34)N12	-1
CCOC(=O)NC(=O)c1cn(CCN2CCN(C(=O)NCCCCCCNC(=O)N3CCN(CCn4cc(C(=O)NC(=O)OCC)c(=O)n(CCN(CC)CC)c4=O)CC3)CC2)c(=O)n(CCC(CC)CC)c1=O	-1
Nc1ccc(Oc2ccc(C34CC5CC(C3)CC(c3ccc(Oc6ccc(N)cc6C(F)(F)F)cc3)(C5)C4)cc2)c(C(F)(F)F)c1	-1
Cc1ccc2[nH]c(=O)c(C(C#N)c3ccccc3)nc2c1 (centres undefined)	-1
CCC(C(=O)O)c1ccc(OCc2ccccc2)cc1 (centres undefined)	-1
N=CCCN(CCC=N)c1ccc(/C=C2\CN(NC(=O)c3ccc(Cl)cc3)C(c3ccccc3)=N2)cc1	-1
CC12CCCCC1=C(F)C(F)(F)S2 (centres undefined)	-1
COc1cc2c3c(c1OC)C1(C=CC(=O)C=C1)CC3NCC2 (centres undefined)	-1
O=C(N=C1N(c2ccccc2)C(=O)C(=O)N1c1ccccc1)c1ccccc1	-1
COc1ccc(CC#N)c(OCc2ccccc2)c1	-1
O=C(O)CN(c1ccccc1)S(=O)(=O)c1ccc(Cl)cc1	-1
COC(=O)[C@@H]1CS(=O)(=O)C(C(C)C)N1C(C)=O (some centres undefined)	-1
Cc1c(/C=N/NC(=S)Nc2ccccc2Cl)c(=O)n(-c2ccccc2)n1C	-1
COC(=O)/C(=C\c1cn(C(C)=O)c2ccccc12)P(=O)(OC)OC	-1
CC12CCCCC1(C)C2Sc1ccccc1 (centres undefined)	-1
CN(C)CCCn1c2c3ccccc3ccc2c2oc(=O)c3ccccc3c21	-1
Cc1cc(S(=O)(=O)Nc2nnc3cnc4ccccc4n23)c(S)cc1Cl	-1
CC(C)(C)OC(=O)c1ccc(NCC2=C(Br)C(=O)C=CC2=O)cc1	-1
S=C1NC(c2ccccc2)NC(c2ccccc2)S1 (centres undefined)	-1
c1ccc(-c2cc(-c3ccncc3)cc(-c3ccncc3)n2)cc1	-1
O=C(O)CS	-1
Cc1ccc(NC(=O)CC(=O)n2nc(C)c(/N=N/c3ccccc3C(=O)O)c2C)cc1	-1
CCOP(=O)(OCC)/C(C#N)=C/c1cnc(-c2ccccc2)[nH]1	-1
COC(=O)c1ccccc1C1=C([N+](=O)[O-])C(c2ccccc2)C(C#N)=C(N)O1 (centres undefined)	-1
Cc1cccc(-c2cc(O)c3ccc(C)nc3n2)c1	1
N#CSC/C(Cl)=C/Cl.N#CSC/C(Cl)=C\Cl	-1
COc1ccc2c(c1)CC[C@@H]1C2CC[C@]2(C)OC(=O)CCC12 (some centres undefined)	-1
O=C(O)CCC1COc2ccccc2O1 (centres undefined)	-1
CCSC1SC(c2ccccc2)(c2ccccc2)c2ccccc21 (centres undefined)	-1
Cc1ccc2c(c1)[nH]c(=S)n2/C=C1\C(=O)Oc2ccccc2C1=O	-1
NC(=O)c1cc(C2OC(CO)C(O)C2O)nn1-c1ccc([N+](=O)[O-])cc1 (centres undefined)	-1
CC(O)CN1c2ccccc2Sc2ccccc21 (centres undefined)	-1

---

System: MDA-MB-435
TEST PROTOCOL: NCI tumour cell line growth inhibition, 48 h
Calls of active or inactive are those of the source. No stated cut-off is given here; in the data, active = GI50 up to about 1.1 µM and inactive = higher.
MEASUREMENT KIND: GI50

> print(dat)
                                    compound  measurement.kind               result
 1    S=c1c2cn[nH]c2nc2scc(-c3ccc(Cl)cc3)n12              GI50   3.78 µM (inactive)
 2  O=c1c2c3c(sc2nc2n1N=CN(c1ccccc1)C2)CCCC3              GI50  > 100 µM (inactive)
 3  CC(C)(C)C1=C(Br)C(OC(=O)C(F)(F)F)(C(C)(C)C)OP1(=O)c1ccccc1 (stereo unspecified)              GI50   53.3 µM (inactive)
 4        O=[N+]([O-])c1ccc([I+]c2ccccc2)cc1              GI50    8.2 µM (inactive)
 5  S=C1NC(c2ccccc2)NC(c2ccccc2)S1 (stereo unspecified)              GI50  > 100 µM (inactive)
 6  COC(=O)c1sc(=S)sc1SCc1cccc(CSc2sc(=S)sc2C(=O)OC)c1              GI50  > 100 µM (inactive)
 7  CCN(C(=O)N[C@H](C(=O)N[C@@H](CSC)C(=O)N[C@@H](C)C(=O)OC)C(C)C)c1ccccc1              GI50   14.7 µM (inactive)
 8                     O=C1C=CC(=O)c2ncccc21              GI50    5.7 µM (inactive)
 9  O=C1c2cccc(NCCNCCO)c2C(=O)c2cccc(NCCNCCO)c21              GI50   1.25 µM (inactive)
10           N#Cc1cc(-c2nc3c(F)cccc3s2)ccc1N              GI50   45.5 µM (inactive)
11                       N#CN1C2CCC1CC(=O)C2              GI50  > 100 µM (inactive)

---

Tested on: T47D
TEST PROTOCOL: NCI tumour cell line growth inhibition, 48 h
Active and inactive are the calls of the source. Cut-off read from the data, not from the text of the source: active = GI50 up to about 1.1 µM and inactive = higher.
Possible outcomes: 1 (yes) = active, 0 (no) = inactive

COMPOUND	LABEL VALUE
CO[C@H]1C[C@H](O[C@H]2CC[C@]3(C=O)[C@H]4CC[C@]5(C)[C@@H](C6=CC(=O)OC6)CC[C@]5(O)[C@@H]4CC[C@]3(O)C2)O[C@H](C)[C@H]1O [CYMARIN]	1 (yes)
CCOC(=O)CC1c2ccc(O)cc2OC(=O)C1c1ccc([N+](=O)[O-])cc1 (centres undefined)	0 (no)
CC1=C(C#N)C23C(=O)c4ccccc4C(=O)C2=C(O)C=CC3(O)N1 (centres undefined)	0 (no)
NCCN1CC2CCC(CC2)C1	0 (no)
NC(=S)N/N=C/C1NCCC2CCCCC21 (centres undefined)	1 (yes)
Nc1ccc(Oc2ccc(C34CC5CC(C3)CC(c3ccc(Oc6ccc(N)cc6C(F)(F)F)cc3)(C5)C4)cc2)c(C(F)(F)F)c1	0 (no)
Nc1cc([N+](=O)[O-])ccc1C(=O)N1CCC[C@H]1CO	0 (no)
COc1cccc2c(=O)c3c(n(C)c12)OC(C(C)C)C3 (centres undefined)	0 (no)
COC(=O)c1ccc(NCC2=CC(=O)c3ccccc3C2=O)cc1	0 (no)

---

Tested on: NCI-H460
TEST PROTOCOL: NCI tumour cell line growth inhibition, 48 h
Calls of active or inactive are those of the source. Cut-off read from the data, not from the text of the source: active = GI50 up to about 1.1 µM and inactive = higher.
Possible outcomes: y (active), n (inactive)

> print(dat)
                                    molecule  label.value
 1  c1ccc(P(CCP(c2ccccn2)c2ccccn2)c2ccccc2)cc1            y
 2  COc1cc(/C=N/N=C(\N)NO)c([N+](=O)[O-])cc1OC            n
 3  O=C1NNC2NC(=O)C3(NN2C1=O)c1ccccc1-c1ccccc13 (stereo not given)            n
 4  CSc1cc(Br)ccc1-n1c(C(=O)c2ccccc2)c(SC)n(-c2ccccc2)c1=O            n
 5  C=C(C)C1CC/C(C)=C/CC[C@]2(C)O[C@H]2CC/C(COC(C)=O)=C\[C@@H]1O (stereo not given in full)            n
 6  N=CCCN(CCC=N)c1ccc(/C=C2\CN(NC(=O)c3ccc(Cl)cc3)C(c3ccccc3)=N2)cc1            n
 7  COc1ccc(C[C@@H]2OC3(C=CC(=O)C=C3)O[C@H]2Cc2ccc(OC)cc2)cc1            n
 8         N#CSC/C(Cl)=C/Cl.N#CSC/C(Cl)=C\Cl            n
 9  O=C1c2c(F)c(F)c(F)c(F)c2SC2=Nc3cccc4cccc(c34)N12            n
10  C1=N\c2ccc(cc2)-c2ccc(cc2)/N=C\c2ccccc2OCc2cccc(n2)COc2ccccc2/1            n
